Source: PubChem BioAssay (NCI)

Test system: NCI-H226 lung
Assay: NCI-60 one-dose screen, 48 h (100 = growth as untreated, 0 = no growth, -100 = all killed)
Settings: 10 µM unless noted
The panel holds about 83,000 compounds, 20% with a hit somewhere; the sample as a whole holds those more often.
Lab note - cut at 80% for growth: Met if strictly below, Not met if not.

> print(dat)
                                   compound  target.entity  discrete.label
1  C#CCOc1cccc(Nc2ncnc3ccc(NC(=O)CCl)cc23)c1  NCI-H226 lung             Met
2  COC(=O)c1cc(-c2ccc(S(C)(=O)=O)cc2)[nH]c1N/N=C/c1c(Cl)cccc1Cl  NCI-H226 lung             Met
3  CCN(CC)CCSc1nc(-c2ccccc2)c(C#N)c(=O)[nH]1  NCI-H226 lung         Not met
4  COC(=O)/C=C1/SC(=Nc2ccc(C)cc2)N(CCc2c[nH]c3ccc(O)cc23)C1=O  NCI-H226 lung         Not met
5  CCOC(=O)c1cn2ncnc(Oc3ccc(NC(=O)NC4CCCCC4)c(Cl)c3)c2c1C  NCI-H226 lung         Not met
6  OCCCC1CCN(C(Cc2ccccc2)c2ccccc2)CC1 (stereo not given)  NCI-H226 lung         Not met
7  Cc1ccccc1NC(=O)c1sc2nc(C)c(C(=O)/C=C/c3ccccc3)cc2c1N  NCI-H226 lung             Met
8  CCC(=C(c1ccc(OCCN2CCCC2)cc1)c1ccc(OCCN2CCCC2)cc1)c1ccc(Cl)cc1  NCI-H226 lung         Not met
9  O=C1CNC(c2ccccc2)C(c2ccccc2)N1 (stereo not given)  NCI-H226 lung         Not met

---

System: MDA-MB-231 breast
Test: NCI-60 one-dose screen, 48 h
Conditions: 10 µM unless noted
The panel holds about 83,000 compounds, 20% with a hit somewhere; the sample as a whole holds those more often. Activity calls are given as the source filed them. Rule for the calls: active = growth percent below 10; inactive = the rest.
Outcomes: active, inactive

compound	discrete-label
COc1ccc2nc3ccc(OC)cc3c(SCCCN)c2c1	inactive
Cc1nc2sc(C(=O)Nc3ccccc3)c(N)c2cc1C(=O)c1ccccc1	inactive
C=C1CC[C@@H]2[C@](C)(COC(C)=O)[C@H](OC(C)=O)CC[C@@]2(C)[C@@H]1CC(Sc1ccccc1)C1=CCOC1=O (stereo not given in full)	active
CO[C@]12C=C/C(=C(/C(=O)OCc3cccnc3)C(=O)CCCCCCCC[C@@]3(OC)C=C/C(=C(/C(=O)OCc4cccnc4)C(=O)CCCCCCCC1)O3)O2	inactive
CN[C@]12CC3(C=CC(=O)C=C3)O[C@@]1(Cc1ccc(OC)cc1)N(C)C(=O)N2	inactive
N#Cc1cnc(NCCc2ccncc2)nc1-n1cnc2ccccc21	inactive
CCOC(=O)c1c(C)nc2c(c1N)CC(=O)N2Cc1cc(F)cc(Cl)c1	inactive
COc1ccc(-c2csc(NC(=O)CSc3nc(-c4ccccc4)cc(=O)[nH]3)n2)cc1	inactive
CNC(=O)c1cc(Oc2ccc3nc(NC(C)=O)sc3c2)ccn1	inactive
C=CCn1c(SCC(=O)NCc2cc(C)c(O)c(C)c2)nc2ccc(Cl)cc2c1=O	inactive
CCN(CC)C(=S)SC(SC(=S)N(CC)CC)C(=O)c1nnn(-c2ccc([N+](=O)[O-])cc2)c1C	inactive
CC(=O)n1nc(C(=O)OC(C)C)c2cc(C)c(C)cc21	inactive
COc1ccc(-c2nn(-c3ccccc3)cc2/C=C2/SC(=S)N(C)C2=O)cc1	inactive
S=C(Nc1ccc(-c2nc(N3CCOCC3)c3cccn3n2)cc1)Nc1cccnc1	inactive
O=C1/C(=C\c2cn(-c3ccccc3)nc2-c2ccc(-c3cccs3)cc2)CCc2ccccc21	inactive
CCCCCCCCCCCCCCCC(N)c1ccccc1 (stereo not given)	active
O=C(Cn1c(=O)sc2nc3ccccc3nc21)Nc1ncc(Cc2cccc(Cl)c2Cl)s1	inactive
O=C(COc1ccc(-c2nc3ccccc3[nH]2)cc1)N=Nc1c(O)[nH]c2ccc(Cl)cc12	inactive
CN(C)CCCn1c2c(c3ncccc3c1=O)C(=O)c1ccccc1-2	inactive
Cc1ccc(Cc2cnc(NC(=O)c3cc(Br)cs3)s2)cc1	inactive
CCCCCOc1ccc(C(=O)/C(Br)=C/C(=O)O)cc1	inactive
CCCCNc1ccc(C#N)c(OCCN(CC)CC)c1	inactive
C=C1C(=O)O[C@H]2[C@H]1CC/C(COC(=O)CSCCSCC(=O)OC/C1=C/CC[C@@]3(C)O[C@H]3[C@H]3OC(=O)C(=C)[C@@H]3CC1)=C\CC[C@@]1(C)O[C@@H]21	active
O=C1/C(=C/c2ccc(Cl)c(Cl)c2)CN(C(=O)C(Cl)Cl)C/C1=C\c1ccc(Cl)c(Cl)c1	active
Cc1ccc(-c2nc(N3CCNCC3)c3oc(-c4ccccc4)nc3n2)cc1	active
O=C1Nc2ccccc2[C@]12CC(c1ccccc1)=NN2	inactive
N#CCSc1nnc2n(Cc3ccccc3)c(=O)c3c4c(sc3n12)CCCC4	inactive
Clc1ccc(Sc2cnc(-c3ccccc3)o2)cc1	inactive
N#Cc1nc(-c2ccccc2)oc1S(=O)(=O)N1CCOCC1	inactive
CCCCCCNC(=O)Oc1ccc(/C(=C(/C)Cc2ccc(OC)cc2)c2ccc(OCCCN(C)C)cc2)cc1	inactive
Cc1ccc(-c2cc(-c3ccc(Cl)cc3)nc(NC(=O)c3cccnc3)n2)cc1	inactive
CN(C)CCNC(=O)c1cccc(-c2cnc3ccc(-c4ccc5c(c4)OCO5)nn23)c1	inactive
CN(CCn1sc(=O)n(Cc2ccccc2)c1=O)Cc1ccc2c(Cl)cc(Cl)c(O)c2n1	inactive
CCOC(=O)/C=C1\S/C(=N\Nc2cc(=O)[nH]c3ccc(Cl)cc23)N(c2ccccc2)C1=O	inactive
O=C(Cn1cc(CN2CCCCCC2)nn1)Nc1ccc2c(ccn2Cc2ccccc2)c1	inactive
CC1=C(C(=O)OC(C)C)C(c2ccc3c(c2)OCO3)NC(=S)N1 (stereo not given)	inactive
N#C/C(=C\c1ccc2ccccc2c1)c1cc2ccccc2[nH]1	inactive
COc1ccc2c(O)c(/C=C3\N=Nc4ccccc43)oc2c1C[C@@H]1CCNC[C@H]1F	inactive
O=C(O)/C(=C\c1ccc(Cl)cc1)c1ccc(Cl)cc1	inactive
O=C(NCc1ccccc1)Nc1ccccc1CNc1nc(Nc2ccc(OCCN3CCCC3)cc2)ncc1Cl	inactive

---

Test system: NCI-H460 lung
Assay: NCI-60 one-dose screen, 48 h (100 = growth as untreated, 0 = no growth, -100 = all killed)
Details: 10 µM unless noted
Experimental: Growth inhibition of the NCI-H460 human Non-Small Cell Lung tumor cell line is measured as a screen for anti-cancer activity. Cells are grown in 96 well plates and exposed to the test compound for 48 hours. Compounds are tested at a single concentration, which is 10^-5 M for most compounds. The reported endpoint is percent growth (GI% or GIPRCNT), where numbers from 0 - 100% represent growth inhibition, and numbers from -100% - 0 represent cell death. […]
About 83,000 compounds went through this panel and 20% of them were active in at least one assay; those are over-represented in the sample as a whole.
Reported growth values for the following compounds.
readout-kind: growth (%)

> print(dat)
                                   compound  readout.kind  reported
1  CC(O)c1cnc(/C=C2\SC(=S)N(Cc3ccccc3)C2=O)s1 (centres undefined)        growth      96.8
2              Brc1c2c(c(Br)c3ccccc13)CCCC2        growth       111
3  Cc1ccc(C2=Nc3c(N)ncnc3NC(c3ccc4c(c3)OCO4)C2)cc1 (centres undefined)        growth      42.4
4  C[C@]12CC[C@@H]3c4ccc(O)c([N+](=O)[O-])c4CC[C@H]3[C@@H]1CCC2=O        growth       112

---

Test system: SF-295 CNS
Assay: NCI-60 one-dose screen, 48 h
Conditions: 10 µM unless noted
About 83,000 compounds went through this panel and 20% of them were active in at least one assay; those are over-represented in the sample as a whole. Calls of active or inactive are those of the source. The calls were made as follows: active = growth percent below 10; inactive = the rest.
Labels: active, inactive

> print(dat)
                                    compound  discrete.label
 1  S=C(Nc1ccc(-c2nc(N3CCOCC3)c3cccn3n2)cc1)Nc1cccnc1        inactive
 2  COc1ccc(/C=N/C2=C(C#N)C(c3cccc(Cl)c3)c3c(ccc4ccccc34)O2)cc1 (stereo unspecified)        inactive
 3  Cc1ccc(C2=Nc3c(N)ncnc3NC(c3ccc4c(c3)OCO4)C2)cc1 (stereo unspecified)        inactive
 4  Cc1nc(-c2ccccc2)cc2c(O)c(C(=O)NN)[nH]c(=O)c12        inactive
 5   O=[N+]([O-])/C(=C/C=C/c1ccccc1)c1ccccc1        inactive
 6              Cc1nc(N2CCOCC2)sc1S(N)(=O)=O        inactive
 7  CN1CCN(C(=O)c2ccc(NC(=O)Nc3ccc(-c4nc(N5CCOCC5)c5cccn5n4)cc3)cc2)CC1          active
 8  CC1=C(CCC(C)N(C)Cc2ccc(OCCCN3CCCC3)cc2)C(C)(C)CCC1 (stereo unspecified)          active
 9  Cc1ccc(/C=C2\CN(C(=O)OC(C)(C)C)C/C(=C\c3ccc(C)cc3)C2=O)cc1        inactive
10               CCCCOC(=O)OCc1cc(=O)c(O)co1        inactive
11                    Cn1ccc2c3c(ccc21)CC3=O        inactive
